# PROTOCOL DESCRIPTION: Elution of dyes from loaded microspheres in PBS
# Assay type: physicochemical
# COND: from APTA43 microspheres; 1 ml in 200 mL PBS; initial loading 8.6 umols per mL of microspheres
Assignment: determine reported initial loaded amount released within 60 minutes for the given molecules.
Give bare numbers, in %.

O=S(=O)([O-])c1ccc2ccc3cccc4ccc1c2c34.[Na+] [Formulation P1, 1-pyrenesulfonic acid sodium salt]    80

Next:
Q: Query: initial loaded amount released within 60 minutes; subject: O=S(=O)([O-])c1cc(S(=O)(=O)[O-])c2ccc3c(O)cc(O)c4ccc1c2c43.[Na+].[Na+] [Formulation P2]
A: 9

src = patent US20180250230A1
